experiment: yeast display, Sf9 membrane polyspecificity reagent, FACS + sequencing; frameworks hold sequencing errors
endpointLabel: polyreactivity (PSR sort gate)

QVQLVESGGGLVQAGGSLRLSCAASGITFYSYAMGWYRQAPGKERELVAAINRSGGSTYYADSVKGRFTISRDNAKNTVYLQMNSLKPEDSAVYYCAAEEGRVFSGGYDYWGQGTQVTVSS = high polyreactivity
QVQLVESGGGLVQAGGSLRLSCAASGFIFYKNAKGWYRQAPGKERELVAAISQIGGTTYYADSVKGRFTISRDNAKNTVYVQMNSLKPEDTAVYYCAASRRVQSDYWGQGTQVTVSS = high polyreactivity

====

test: yeast display, Sf9 membrane polyspecificity reagent, FACS + sequencing; frameworks hold sequencing errors
endpointLabel: polyreactivity (PSR sort gate)

Examples with their reported polyreactivity (PSR sort gate) follow.
QVQRVESGGGLVQAGGSLRLSCSASGFIFQLSAMGWYRQAPGTERELVAAITWRGGSTYYADSVKGRFTISRDNAKNTVYLQMYSLKPEDTAVYYCAASASWRGQRVPYGYWGQGTQVTVSS = high polyreactivity
QVQLVESGGGLVHAGGSLRLSCAASGRTIGYYAMGWYRQAPGKERELVAAISWSGGSTYYADSVKGRFTISRDIAKNTVYLQMNSLKPEATAVYYCAAKYSFRAAHYYYWGQGTQVTVSS = high polyreactivity
QVQLVESGGGLVQARGILRLSCAASGIIFYTYAMGLYRQAPGKERELVAAITARTANTYYADSVKGRFTISRDNAKNTVYLQMNSLKPEDTAVYYCAAAIYSYRTPYYYWGQGTQVTVSS = high polyreactivity
QDQHVESGGGLVQAGGSLRLSCAASGSTFGDNAMGWYRQAPGKERELVAAISRGGRTYYADSVKGRFTISRDNAKNTVYLQMNSLKPEDTAVYYCAATSAYRGYWVLRGLSYDYWGQGTQVTVSS = high polyreactivity
QVQLVESGGGVVQAGGSLRLSCAASGRIFRINGMGWYRQAPGKEREFVAAITSGGGTYYADSVKGRFTITRDNAKNTVYLQMNSLKPEDTAVYYCAAPSYRTRYYYWGQGTQVTVSS = high polyreactivity
QVQRVESGGGLVQAGGSLRLSCAASGSIFEPYAMGCYRQAPGKESELVATAITYSGGSTYYADSVKGRFTISRDNAKNTVYLQMNSLKPEDTAVYYCAADDLGDGVYKLDYWGLGTQVTVSS = low polyreactivity
QVQLVESGGGLVQAGGSLSLSCAASGSISYRYAMGWYRQAPGKERELVAAITSGGRTYYADSVKGRFTISRDNAKYTVYLQMNSLKPEDTAVYYCAKSKPVGPYYYWGQGTQVTVSS = high polyreactivity
QVQLVESGGGLVQAGGSLRLSCAASGITFYHYAMGWYRQAPGKKRELVASITDGGITKYADSVKGRFTISRDNAKYTVYLQMNSQNPEDTAVYYCAAIAYPDIPTYFDYDSDFFYWGQGTQVTVSS = high polyreactivity
QVQLVESGGGLVQAGGSLRLSCAASGSIFGYYAKGWYRQAPGKERELVAAIDSGGGSTYYADSVRGRVTISRDNAKNTVYIQMNRLKPEDTAVYYCAAVSYSYPSLLYEYWGQGTQVTVSS = low polyreactivity
QVQLVESGGGLVQAGGSLRLSCAASGRIFTIYAMGWYRQAPGKERELVAAISDRGTRTYYADSVKGRFTISRDNAKNTVYLQMNSLKPEDTAVYYCATDALYTYGYYYWGQGTQVTVSS = low polyreactivity

# evaluate next
### Prompt Entry under review: QVQLVDSGGGLVQAGGSLRLSCAASGRIFYSNAMGWYRQAPGKVRELVAAITTSGASTYYADSVKGRFTISRDNAKNTVYLQLISMKPEDTAVYYCATYAVVYPFAMDYWGQGTQVTVSS . Reported polyreactivity (PSR sort gate)?
### Response low polyreactivity
